ASSAY METHOD TEXT: Oral bioavailability in rat at 50.3 mg/kg
Format: ADME, organism-based
RECORDED CONDITIONS: in vivo
OUTCOME MEASURE: bioavailability (%)

# MOLECULE SMILES, ASSAY VALUE
records = [
    ("Cc1cccc(-c2[nH]c(Cc3cccc(C(N)=O)c3)nc2-c2ccc3nccnc3c2)n1", 11.4),
]

###

ASSAY METHOD TEXT: Oral bioavailability in dog at 5.5 mg/kg
Type: ADME, organism-based, Canis lupus familiaris
RECORDED CONDITIONS: in vivo
OUTCOME MEASURE: bioavailability (%)

# MOLECULE SMILES, OUTCOME MEASURE, MEASUREMENT UNITS, ASSAY VALUE
measured = [
    ("Cc1cccc(-c2[nH]c(Cc3cccc(C(N)=O)c3)nc2-c2ccc3nccnc3c2)n1", "bioavailability", "%", 84.9),
]
